Numbers sourced from paper PMC10779317.

# measured_on: Dnmt3a-CD (mouse (murine)) (UniProt O88508)
# Sequence (O88508 630-908): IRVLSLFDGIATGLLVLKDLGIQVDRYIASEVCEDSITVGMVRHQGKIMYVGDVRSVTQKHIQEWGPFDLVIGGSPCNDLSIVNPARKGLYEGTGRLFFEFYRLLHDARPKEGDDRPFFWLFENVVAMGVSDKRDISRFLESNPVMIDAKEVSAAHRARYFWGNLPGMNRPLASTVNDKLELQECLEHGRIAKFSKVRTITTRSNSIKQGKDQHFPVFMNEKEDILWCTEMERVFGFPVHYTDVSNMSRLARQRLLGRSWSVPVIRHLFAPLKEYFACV
# assay_explanation: competition (inhibition of 30Uf/30Df methylation)
# condition_details: 20 mM HEPES-NaOH pH 7.5, 100 mM KCl, 1 mM EDTA, 1 mM DTT, 100 uM AdoHcy, 10 nM DNA (60 nM for PWWP); FP temperature not stated; methylation competition at 37 C …
quantity_measured: IC50 (nM)

In [3]: df
Out[3]:
                           sequence_input  quantity_measured  reported_measurement
0  TGGGGAGGGTGAGGAGTGTGGGGAAGG [27G4-mut]               IC50                  1100
